# system: CCR9 (Homo sapiens)
# Construct: expressed in transfected cells
# Sequence (P51686 whole entry): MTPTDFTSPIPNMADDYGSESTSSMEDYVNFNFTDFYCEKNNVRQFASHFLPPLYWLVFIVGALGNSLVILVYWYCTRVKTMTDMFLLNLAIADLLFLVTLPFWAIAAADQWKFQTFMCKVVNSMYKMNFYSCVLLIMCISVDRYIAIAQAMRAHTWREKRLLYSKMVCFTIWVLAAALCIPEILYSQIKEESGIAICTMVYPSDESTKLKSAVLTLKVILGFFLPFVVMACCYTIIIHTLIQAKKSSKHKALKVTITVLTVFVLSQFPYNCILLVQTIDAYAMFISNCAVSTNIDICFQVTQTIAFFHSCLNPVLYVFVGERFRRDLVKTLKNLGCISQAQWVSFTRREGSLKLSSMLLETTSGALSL
# assayProtocol: Figure S2a opioid peptide screen on chemokine receptors
# Type: cell-based
# Set-up: dose or concentration left out as unconfirmed
# measurementContext: replicate 1, read-out: CCR9 activity, ctrl+ = 100
valueKind: activation (%)
Numbers only, in %.

Hi team, please reply with activation for each item in this list.
1. CC(C)C[C@H](NC(=O)[C@H](Cc1ccccc1)NC(=O)CNC(=O)CNC(=O)[C@@H](N)Cc1ccc(O)cc1)C(=O)N[C@@H](CCCN=C(N)N)C(=O)N[C@@H](CCCN=C(N)N)C(=O)N[C@@H](CCC(N)=O)C(=O)N[C@@H](Cc1ccccc1)C(=O)N[C@@H](CCCCN)C(=O)N[C@H](C(=O)N[C@H](C(=O)N[C@H](C(=O)O)[C@@H](C)O)C(C)C)C(C)C
2. CC[C@H](C)[C@H](NC(=O)[C@H](CCCNC(=N)N)NC(=O)[C@H](CCCNC(=N)N)NC(=O)[C@H](CC(C)C)NC(=O)[C@H](Cc1ccccc1)NC(=O)CNC(=O)CNC(=O)[C@@H](N)Cc1ccc(O)cc1)C(=O)N[C@@H](CCCNC(=N)N)C(=O)N1CCC[C@H]1C(=O)N[C@@H](CCCCN)C(=O)N[C@@H](CC(C)C)C(=O)N[C@@H](CCCCN)C(=O)O
3. CC[C@H](C)[C@H](NC(=O)[C@H](CCCNC(=N)N)NC(=O)[C@H](CCCNC(=N)N)NC(=O)[C@H](CC(C)C)NC(=O)[C@H](Cc1ccccc1)NC(=O)CNC(=O)CN)C(=O)N[C@@H](CCCNC(=N)N)C(=O)N1CCC[C@H]1C(=O)N[C@@H](CCCCN)C(=O)N[C@@H](CC(C)C)C(=O)N[C@@H](CCCCN)C(=O)N[C@@H](Cc1c[nH]c2ccccc12)C(=O)N[C@@H](CC(=O)O)C(=O)N[C@@H](CC(N)=O)C(=O)N[C@@H](CCC(N)=O)C(=O)O
4. CC(C)C[C@H](NC(=O)[C@H](CCCCN)NC(=O)[C@H](CCCN=C(N)N)NC(=O)[C@H](C)NC(=O)[C@H](CO)NC(=O)[C@H](CCCCN)NC(=O)[C@H](CCCN=C(N)N)NC(=O)[C@H](C)NC(=O)CNC(=O)[C@@H](NC(=O)[C@H](Cc1ccccc1)NC(=O)CNC(=O)CNC(=O)[C@@H](N)Cc1ccccc1)[C@@H](C)O)C(=O)N[C@@H](C)C(=O)N[C@@H](CC(N)=O)C(=O)N[C@@H](CCC(N)=O)C(=O)O
5. CSCC[C@H](NC(=O)[C@H](Cc1ccccc1)NC(=O)CNC(=O)CNC(=O)[C@@H](N)Cc1ccc(O)cc1)C(=O)N[C@@H](CCCNC(=N)N)C(=O)N[C@@H](CCCNC(=N)N)C(=O)N[C@H](C(N)=O)C(C)C

[-1.23, -2.31, 1.95, 0.361, 0.345]
